# SYSTEM NAME: Avi-humanTEAD4 217-434 / Cy5 labeled humanYAP 60-100 (Homo sapiens (Human))
# Sequence (Q15561 217-434): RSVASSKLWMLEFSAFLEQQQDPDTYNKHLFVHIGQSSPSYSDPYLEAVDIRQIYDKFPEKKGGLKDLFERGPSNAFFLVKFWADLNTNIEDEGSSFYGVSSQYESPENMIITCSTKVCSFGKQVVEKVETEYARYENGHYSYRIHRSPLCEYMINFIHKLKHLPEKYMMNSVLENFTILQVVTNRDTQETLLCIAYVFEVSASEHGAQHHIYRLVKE
# PROTOCOL DETAILS: TR-FRET YAP-TEAD4 in-vitro biochemical assay
# STUDY CONDITIONS: 1 nM Avi-humanTEAD4 217-434, 20 nM Cy5-humanYAP 60-100, 1 h room temperature
MEASURED QUANTITY: IC50 (nM)

MOLECULE	DISPLAY UNIT	EXPERIMENTAL VALUE
COc1ccc(C(N)=O)c(-c2c(Cl)ccc3c2C[C@](c2ccccc2)(C(C)N)O3)c1F (some centres unmarked) [Example 168]	nM	12
CNC[C@]1(c2ccccc2)Oc2cc(F)c(Cl)c(-c3c(C(=O)NC)ccc(OC[C@H](C)O)c3F)c2[C@@H]1C (atropisomer, axis not shown) [Example 122]	nM	6
C[C@H]1c2c(cc(F)c(Cl)c2-c2c(C(N)=O)ccc(OCCO)c2F)O[C@]1(CN[C@H]1CC[C@@](C)(O)CC1)c1ccccc1 (atropisomer, axis not shown) [Example 117b]	nM	1
CNC[C@@]1(c2ccccc2)Cc2c(cc(F)c(Cl)c2-c2c(C(N)=O)ccc(OC)c2F)O1 (atropisomer, axis not shown) [Example 46]	nM	3
C[C@H]1c2c(cc(F)c(Cl)c2-c2c(C(N)=O)ccc(OCCO)c2F)O[C@]1(CN)c1ccccc1 (atropisomer, axis not shown) [Example 107]	nM	2

(a) COc1ccc(C(N)=O)c(-c2c(Cl)c(F)cc3c2C[C@](c2ccccc2)(C2COCCN2)O3)c1F (single isomer, unassigned) [Example 163]
(b) CS(=O)(=O)N1CCC(NC[C@@]2(c3ccccc3)Cc3c(cc(F)c(Cl)c3-c3c(C(N)=O)ccc(OC(F)F)c3F)O2)CC1 (atropisomer, axis not shown) [Example 63]
Hey, which is lower on measured IC50, a or b ? Answer format: the label of the selected item.
b

(1) CNC[C@@]1(c2ccccc2)Cc2c(cc(F)c(Cl)c2-c2c(C(N)=O)cnc(OCCOC)c2F)O1 (atropisomer, axis not shown) [Example 47]
(2) CS(=O)(=O)NC1CCC(NC[C@@]2(c3ccccc3)Cc3c(cc(F)c(Cl)c3-c3c(C(N)=O)ccc(OC(F)F)c3F)O2)CC1 (single isomer, unassigned) [Example 57b]
Hi team, can someone confirm which has the larger IC50: 1 or 2 ? Thanks. To answer, give the label that identifies your chosen option.
2

(I) CC(=O)NC1CCC(NC[C@@]2(c3ccccc3)Cc3c(cc(F)c(Cl)c3-c3c(C(N)=O)ccc(OC(F)F)c3F)O2)CC1 (single isomer, unassigned) [Example 56b]
(II) NC(=O)c1ccc(OC(F)F)c(F)c1-c1c(Cl)ccc2c1[C@H](O)[C@@](CN[C@H]1CC[C@@H](O)CC1)(c1ccccc1)O2 (relative stereo) [Example 94b]
I would appreciate it if you could say which entry, I or II , has the lower IC50 value. Answer format: the label of the selected item.
II
(II: 3 nM, I: 11 nM)
